Record form. Attribute: pEC50. Fill in for each entry.
# Test system: CEM cells HIV-1 protection, formazan growth assay
# procedure.text: NCI AIDS Antiviral Assay
# Protocol: The ability of compounds to protect human CEM cells from HIV-1 infection is measured as a screen for new compounds capable of inhibiting the HIV virus. Five concentrations of drug were tested on uninfected and infected cells and cell growth was measured using a soluble formazan assay. […] Compounds that provided at least 50% protection were retested. Compounds that provided at least 50% protection on retest were listed as moderately active. […]
pEC50: −log10 of the molar value.

Ask | If you can, please state the reported pEC50 value of CN(C)CC1CCC/C(=C\c2ccc(Cl)cc2)C1=O (centres undefined) .
Reply | < 4.70

Ask | Then CC(Oc1ccc(Oc2cnc3ccc(Cl)cc3n2)cc1)C(=O)O (centres undefined) ?
Reply | < 3.85

Ask | Then CCSC(CCCC1OCC2OC(n3cc(C)c(=O)[nH]c3=O)CC2N1O)SCC (centres undefined) ?
Reply | < 3.70

Ask | Then Cc1ccc(-n2cc(-c3ccc(Cl)cc3)c3c2N=CN2NC(c4cccs4)=NC32)cc1 (centres undefined) ?
Reply | < 4.00

----------
# Tested on: CEM cells HIV-1 protection, formazan growth assay
# procedure.text: NCI AIDS Antiviral Assay
pEC50: −log10 of the molar value.
measured.quantity: pEC50

Ask | GET /values?readout=pEC50&system=CEM cells HIV-1 protection, formazan growth assay&item= Cn1c2c(c3ccccc31)CCN1C(=O)CN(C(=O)C3CCCCC3)CC21 (centres undefined)
Reply | < 3.70

Ask | Then COc1ccc(C(=O)C(c2ccc(OC)cc2)C2(O)C(=O)Nc3c2ccc(Cl)c3C)cc1 (centres undefined) ?
Reply | < 4.94

Ask | Then FC(F)(F)c1cccc(COCCN2CCN(Cc3cccc(C(F)(F)F)c3)CC2)c1 ?
Reply | < 3.70

Ask | Then c1n[nH]cc1C12C3C4C5C3C1C5C42 (centres undefined) ?
Reply | < 3.70

----------
# System: CEM cells HIV-1 protection, formazan growth assay
# procedure.text: NCI AIDS Antiviral Assay
# condition.parameters: measured here: growth of uninfected CEM cells
pIC50: −log10 of the molar value.
Record form. Attribute: pIC50. Fill in for each entry.

Ask | GET /values?readout=pIC50&system=CEM cells HIV-1 protection, formazan growth assay&item= Cc1ccc(/C=C2\CNC/C(=C\c3ccc(C)cc3)C2=O)cc1
Reply | < 5.40

Ask | Then CC1(C)COC(C23C4C5C2C2C3C4C52I)=N1 (stereo not given) ?
Reply | < 4.10

Ask | Then O=C1CCN(CCC(F)(F)C(F)(F)C(F)(F)C(F)(F)C(F)(F)C(F)(F)F)C(=S)N1CCC(F)(F)C(F)(F)C(F)(F)C(F)(F)C(F)(F)C(F)(F)F ?
Reply | < 4.78

Ask | Then NNC(=O)C(=O)N/N=C(\CCCC(=O)Nc1ccc(Cl)cc1)CC(=O)c1ccc(F)cc1 ?
Reply | < 3.57

Ask | Then O=S1(=O)CCCS(=O)(=O)C1CC1S(=O)(=O)CCCS1(=O)=O ?
Reply | < 3.61

----------
# System: CEM cells HIV-1 protection, formazan growth assay
# procedure.text: NCI AIDS Antiviral Assay;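 active means compounds giving half or more protection of infected cells from virus-caused growth loss, again on retest; inactive means the rest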
One label from this list, please: active, inactive

Ask | Record request — test call for CC(C)(NC(=O)OCc1ccccc1)C(=O)OC(=O)C(C)(C)NC(=O)OCc1ccccc1
Reply | inactive

Ask | Then COc1ccc(CN2COc3c(ccc4ccccc34)C2)cc1 ?
Reply | inactive

Ask | Then CCOc1ccc(/C(Cl)=C(\C=O)c2ccc(OC)c(OC)c2)cc1OCC ?
Reply | inactive

Ask | Then C#CN1C(=O)c2c(c(-c3ccccc3)c(-c3ccc(Oc4ccc(-c5c(-c6ccccc6)c6c(c(-c7ccccc7)c5-c5ccccc5)C(=O)N(C#C)C6=O)cc4)cc3)c(-c3ccccc3)c2-c2ccccc2)C1=O ?
Reply | inactive

Ask | Then O=S(=O)(O)CC(O)CNC(CO)(CO)CO (stereo unspecified) ?
Reply | inactive

Ask | Then CCOC(=O)N1C=NC23C(c4ccccc4)C(c4ccccc4)C12C(=O)N(C)C(=O)N3C (stereo unspecified) ?
Reply | inactive

Ask | Then CC(C)C1CNC(=O)C2(CCCO2)CNC(C(C)C)CNC(=O)C2(CCCO2)CN1 (stereo unspecified) ?
Reply | inactive

Ask | Then CC1CCN(SSc2nc3ccccc3s2)CC1 ?
Reply | active

Ask | Then COCCCNC(=O)C1C(=O)N(CCCOC)C(=O)/C1=N\N (stereo unspecified) ?
Reply | inactive

Ask | Then CCN(CC)CCOC(=O)c1cc2ccccc2[nH]1 ?
Reply | inactive

Ask | Then O=C1c2cc3c(cc2CC12Cc1cc4c(cc1C2=O)CCCC4)CCCC3 ?
Reply | inactive
